experimental_target: Recombinant DPP-IV
test: cell-based or functional assay
Starred links: 1 amine or outer side, 2 acyl side, 3 side chain; linkers in the order of their positions; H or OH if unused. Groups on a side chain read outwards from the residue. No end group written: not given here. 2‑(S)‑cyano pyrrolidyl = 2-(S)-cyano pyrrolidyl group; γGlu = O=C(O)[C@H](CCC(=O)[*:2])N[*:1]; AEEA = NCCOCCOCC(=O)O
Entry flag: 1 if DPP-IV IC50 reaches 100 nM; -1 if it does not.

>>> class_name("YAEGTFISDYSIAMDKIHQQDFVNWLLAQK (C-terminus extended with Ado-Ado-Lys-N-ε-(2-(S)-cyano pyrrolidyl)) [GIP(1-30)-Ado-Ado-Lys-N-ε-(2-(S)-cyano pyrrolidyl)]")
1
>>> class_name("YAEGTFISDYSIAMDKIHQQDFVNWLLAQK (N-terminus acylated with γ-L-Glu-(2-(S)-cyano pyrrolidyl)-Ado-Ado) [N-(γ-L-Glu-2-(S)-cyano pyrrolidyl)-Ado-Ado) GIP(1-30)]")
-1
>>> class_name("YAEGTFISDYSIAMDKIHQQDFVNWLLAQK([AEEA-γGlu-2‑(S)‑cyano pyrrolidyl]) [Lys^30 N-ε-(Ado-(γ-L-Glu-2-(S)-cyano pyrrolidyl)) GIP(1-30)]")
-1
>>> class_name("YAEGTFISDYSIALDKIHQQDFVNWLLAQK-{AEEA-Lys(N-ε-(2-(S)-cyano pyrrolidyl))} [[Leu^14] GIP(1-30)-Ado-Lys-N-ε-(2-(S)-cyano pyrrolidyl)]")
1

Just for reference, patent US20140371148A1 is where these values come from.
